test system: Escherichia coli; test: Inhibition of Metallo-beta-lactamase NDM-1 in Escherichia coli clinical isolate assessed as fold reduction in meropenem MIC at 64 ug/ml; conditions: dose 64.0 µg/ml
property measured: fold change (FC)
Please give only the number in your answer, with no unit.

Supply fold change (FC) measured with Escherichia coli for "CC1=C(C(=O)O)N2C(=O)[C@@H](NC(=O)Cc3ccccc3)[C@H]2SC1" .
2

Supply fold change (FC) measured with Escherichia coli for "O=C(Cc1ccccc1)N[C@@H]1C(=O)N2C(C(=O)O)=C(CSCC(=O)c3ccccc3)CS[C@H]12" .
4

Supply fold change (FC) measured with Escherichia coli for "O=C(Cc1ccccc1)N[C@@H]1C(=O)N2C(C(=O)O)=C(CSCc3ccccc3)CS[C@H]12" .
2

Supply fold change (FC) measured with Escherichia coli for "O=C(Cc1ccccc1)N[C@@H]1C(=O)N2C(C(=O)O)=C(CSCCc3ccccc3)CS[C@H]12" .
4

Supply fold change (FC) measured with Escherichia coli for "O=C(Cc1ccccc1)N[C@@H]1C(=O)N2C(C(=O)O)=C(CS[C@H](Cc3ccccc3)C(=O)O)CS[C@H]12" .
4

====

Give measured fold change (FC) for each item. Keep answers brief.
system: Escherichia coli; experiment: Inhibition of Metallo-beta-lactamase VIM-2 in Escherichia coli clinical isolate assessed as fold reduction in meropenem MIC at 32 ug/ml; details: dose 32.0 µg/ml
Please give only the number in your answer, with no unit.

Answer with reported fold change (FC) of "O=C(Cc1ccccc1)N[C@@H]1C(=O)N2C(C(=O)O)=C(CSCCc3ccccc3)CS[C@H]12"
1

Answer with reported fold change (FC) of "CC1=C(C(=O)O)N2C(=O)[C@@H](NC(=O)Cc3ccccc3)[C@H]2SC1"
2

Answer with reported fold change (FC) of "O=C(Cc1ccccc1)N[C@@H]1C(=O)N2C(C(=O)O)=C(CS[C@@H](Cc3ccccc3)C(=O)O)CS[C@H]12"
1

Answer with reported fold change (FC) of "O=C(Cc1ccccc1)N[C@@H]1C(=O)N2C(C(=O)O)=C(CSCC(=O)c3ccccc3)CS[C@H]12"
1

Answer with reported fold change (FC) of "O=C(Cc1ccccc1)N[C@@H]1C(=O)N2C(C(=O)O)=C(CSCc3ccccc3)CS[C@H]12"
2

Answer with reported fold change (FC) of "O=C(O)CSCC1=C(C(=O)O)N2C(=O)[C@@H](NC(=O)Cc3ccccc3)[C@H]2SC1"
2

Answer with reported fold change (FC) of O=C(Cc1ccccc1)N[C@@H]1C(=O)N2C(C(=O)O)=C(CSC(C(=O)O)c3ccccc3)CS[C@H]12 (some centres undefined)
2

Answer with reported fold change (FC) of "O=C(Cc1ccccc1)N[C@@H]1C(=O)N2C(C(=O)O)=C(CS[C@H](Cc3ccccc3)C(=O)O)CS[C@H]12"
2

====

Give measured MIC for each item. Keep answers brief.
test system: Klebsiella pneumoniae; assay: Inhibition of Metallo-beta-lactamase IMP-28 in Klebsiella pneumoniae clinical isolate assessed as MIC for meropenem antibacterial activity at 128 ug/ml (reference value: 2 ug/ml); details: dose 128.0 µg/ml

Answer with reported MIC of "O=C(O)c1cccc(C(=O)O)n1"
< 0.031 µg/mL

Answer with reported MIC of "O=C(O)CSCC1=C(C(=O)O)N2C(=O)[C@@H](NC(=O)Cc3ccccc3)[C@H]2SC1"
0.125 µg/mL

Answer with reported MIC of "CC1=C(C(=O)O)N2C(=O)[C@@H](NC(=O)Cc3ccccc3)[C@H]2SC1"
0.25 µg/mL

Answer with reported MIC of "O=C(Cc1ccccc1)N[C@@H]1C(=O)N2C(C(=O)O)=C(CSCc3ccccc3)CS[C@H]12"
0.25 µg/mL

====

test system: Klebsiella pneumoniae; experiment: Substrate activity at Klebsiella pneumoniae beta-lactamase IMP-28 assessed as compound hydrolysis by measuring Kcat by Michaelis-Menten analysis
property measured: kcat (s⁻¹)
Number only, in s⁻¹; omit the unit.

Answer with reported kcat of O=C(Cc1ccccc1)N[C@@H]1C(=O)N2C(C(=O)O)=C(CSC(C(=O)O)c3ccccc3)CS[C@H]12 (some centres undefined)
0.386

Answer with reported kcat of "O=C(Cc1ccccc1)N[C@@H]1C(=O)N2C(C(=O)O)=C(CS[C@H](Cc3ccccc3)C(=O)O)CS[C@H]12"
2.83

Answer with reported kcat of "CC1=C(C(=O)O)N2C(=O)[C@@H](NC(=O)Cc3ccccc3)[C@H]2SC1"
23.3

Answer with reported kcat of "O=C(Cc1ccccc1)N[C@@H]1C(=O)N2C(C(=O)O)=C(CSCc3ccccc3)CS[C@H]12"
10.8

====

system: Klebsiella pneumoniae; test: Inhibition of Metallo-beta-lactamase IMP-28 in Klebsiella pneumoniae clinical isolate assessed as MIC for meropenem antibacterial activity at 64 ug/ml (reference value: 2 ug/ml); conditions: dose 64.0 µg/ml
property measured: MIC

Answer with reported MIC of "O=C(O)c1cccc(C(=O)O)n1"
< 0.031 µg/mL

Answer with reported MIC of "O=C(Cc1ccccc1)N[C@@H]1C(=O)N2C(C(=O)O)=C(CSCc3ccccc3)CS[C@H]12"
0.25 µg/mL

Answer with reported MIC of "CC1=C(C(=O)O)N2C(=O)[C@@H](NC(=O)Cc3ccccc3)[C@H]2SC1"
0.5 µg/mL

Answer with reported MIC of "O=C(O)CSCC1=C(C(=O)O)N2C(=O)[C@@H](NC(=O)Cc3ccccc3)[C@H]2SC1"
0.25 µg/mL

====

system: Escherichia coli; test: Inhibition of Metallo-beta-lactamase VIM-2 in Escherichia coli clinical isolate assessed as MIC for meropenem antibacterial activity at 64 ug/ml (reference value: 8 ug/ml); conditions: dose 64.0 µg/ml
Give measured MIC for each item. Keep answers brief.
Number only, in µg/mL; omit the unit.

Answer with reported MIC of "O=C(Cc1ccccc1)N[C@@H]1C(=O)N2C(C(=O)O)=C(CS[C@H](Cc3ccccc3)C(=O)O)CS[C@H]12"
4

Answer with reported MIC of O=C(Cc1ccccc1)N[C@@H]1C(=O)N2C(C(=O)O)=C(CSC(C(=O)O)c3ccccc3)CS[C@H]12 (stereo not given in full)
2

Answer with reported MIC of "O=C(Cc1ccccc1)N[C@@H]1C(=O)N2C(C(=O)O)=C(CSCCc3ccccc3)CS[C@H]12"
4

Answer with reported MIC of "O=C(Cc1ccccc1)N[C@@H]1C(=O)N2C(C(=O)O)=C(CSCC(=O)c3ccccc3)CS[C@H]12"
4

Answer with reported MIC of "O=C(Cc1ccccc1)N[C@@H]1C(=O)N2C(C(=O)O)=C(CS[C@@H](Cc3ccccc3)C(=O)O)CS[C@H]12"
8

====

Give measured MIC for each item. Keep answers brief.
tested on: Escherichia coli; test: Inhibition of Metallo-beta-lactamase NDM-1 in Escherichia coli clinical isolate assessed as MIC for meropenem antibacterial activity at 128 ug/ml (reference value: 32 ug/ml); settings: dose 128.0 µg/ml
Number only, in µg/mL; omit the unit.

Answer with reported MIC of "O=C(Cc1ccccc1)N[C@@H]1C(=O)N2C(C(=O)O)=C(CSCC(=O)c3ccccc3)CS[C@H]12"
8

Answer with reported MIC of "O=C(Cc1ccccc1)N[C@@H]1C(=O)N2C(C(=O)O)=C(CS[C@H](Cc3ccccc3)C(=O)O)CS[C@H]12"
8

Answer with reported MIC of "O=C(Cc1ccccc1)N[C@@H]1C(=O)N2C(C(=O)O)=C(CSCc3ccccc3)CS[C@H]12"
16

Answer with reported MIC of O=C(Cc1ccccc1)N[C@@H]1C(=O)N2C(C(=O)O)=C(CSC(C(=O)O)c3ccccc3)CS[C@H]12 (some centres not stated)
8

Answer with reported MIC of "CC1=C(C(=O)O)N2C(=O)[C@@H](NC(=O)Cc3ccccc3)[C@H]2SC1"
16

Answer with reported MIC of "O=C(O)CSCC1=C(C(=O)O)N2C(=O)[C@@H](NC(=O)Cc3ccccc3)[C@H]2SC1"
8

====

tested on: Klebsiella pneumoniae; assay: Inhibition of Metallo-beta-lactamase IMP-28 in Klebsiella pneumoniae clinical isolate assessed as fold reduction in meropenem MIC at 32 ug/ml; details: dose 32.0 µg/ml
property measured: fold change (FC)
Please give only the number in your answer, with no unit.

Answer with reported fold change (FC) of O=C(O)c1cccc(C(=O)O)n1 [DIPICOLINIC ACID]
16

Answer with reported fold change (FC) of "O=C(Cc1ccccc1)N[C@@H]1C(=O)N2C(C(=O)O)=C(CS[C@@H](Cc3ccccc3)C(=O)O)CS[C@H]12"
4

====

Give measured kcat for each item. Keep answers brief.
test system: Klebsiella pneumoniae; test: Substrate activity at Klebsiella pneumoniae beta-lactamase IMP-28 assessed as compound hydrolysis by measuring Kcat by Michaelis-Menten analysis
Number only, in s⁻¹; omit the unit.

Answer with reported kcat of "O=C(Cc1ccccc1)N[C@@H]1C(=O)N2C(C(=O)O)=C(CSCCc3ccccc3)CS[C@H]12"
6.12

Answer with reported kcat of "O=C(Cc1ccccc1)N[C@@H]1C(=O)N2C(C(=O)O)=C(CS[C@@H](Cc3ccccc3)C(=O)O)CS[C@H]12"
41

Answer with reported kcat of "O=C(O)CSCC1=C(C(=O)O)N2C(=O)[C@@H](NC(=O)Cc3ccccc3)[C@H]2SC1"
37
